Values compiled from patent US20180141988A1.

tested-system: T1, murine GPC3 (6938-GP; R&D systems), biotinylated (murine, UniProt Q8CFZ4 25-558, limits assumed, biotinylated using standard NHS chemistry)
T1 construct: Bought protein; also called mouse GPC3
T1 sequence (Q8CFZ4 25-558 limits assumed): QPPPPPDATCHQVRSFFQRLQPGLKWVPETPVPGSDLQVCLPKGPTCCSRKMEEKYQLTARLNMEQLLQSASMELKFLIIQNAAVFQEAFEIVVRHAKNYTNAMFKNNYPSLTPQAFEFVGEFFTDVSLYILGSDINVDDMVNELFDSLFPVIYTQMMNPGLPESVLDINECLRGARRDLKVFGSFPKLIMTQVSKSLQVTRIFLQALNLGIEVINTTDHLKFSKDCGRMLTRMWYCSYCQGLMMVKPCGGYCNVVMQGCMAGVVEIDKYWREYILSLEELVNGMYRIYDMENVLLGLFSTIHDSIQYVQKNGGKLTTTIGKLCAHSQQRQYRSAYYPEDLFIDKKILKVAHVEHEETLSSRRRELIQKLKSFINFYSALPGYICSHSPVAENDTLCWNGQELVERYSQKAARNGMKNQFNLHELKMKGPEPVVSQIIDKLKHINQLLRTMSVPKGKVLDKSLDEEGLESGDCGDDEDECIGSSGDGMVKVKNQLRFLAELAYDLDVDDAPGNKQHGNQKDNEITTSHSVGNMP
assay-explanation: SPR (Biacore T200), biotinylated GPC3 captured on chip, mutein in flow
quantity-measured: kon (M⁻¹ s⁻¹)
Report only the number, with the unit M⁻¹ s⁻¹ understood.

Indicate its recorded kon; the binder in question is lipocalin mutein of SEQ ID NO: 12 (designed binder, hNGAL (Lcn2) mutein; also called optimized GPC3 specific lipocalin mutein) QDSTSDLIPAPPLSKVPLQQNFQDNQFQGKWYVVGRAGNVALREDKDPPKMRATIYELKEDKSYDVTNVVFAGKKCKYSIGTFVPGSQPGEFTLGRIKSPPGNTANLVRVVSTNYNQHAMVFFKEVYQNREIFFIILYGRTKELTSELKENFIRFSKSLGLPENHIVFPVPIDQCIDGSAWSHPQFEK 5.1e+06

In one line, give reported kon of the entry lipocalin mutein of SEQ ID NO: 4 (designed binder, hNGAL (Lcn2) mutein; also called non-optimized GPC3-specific Lcn2 mutein; mother clone) QDSTSDLIPAPPLSKVPLQQNFQDNQFHGKWYVVGRAGNVALREDKDPPKMRATIYELKEDKSYNVTNVRFAMKKCMYSIGTFVPGSQPGEFTLGQIKSEPGNTSNLVRVVSTNYNQHAMVFFKEVYQNREIFFITLYGRTKELTSELKENFIRFSKSLGLPENHIVFPVPIDQCIDGSAWSHPQFEK . 2.6e+06

Answer with reported kon of lipocalin mutein of SEQ ID NO: 14 (designed binder, hNGAL (Lcn2) mutein; also called optimized GPC3 specific lipocalin mutein) QDSTSDLIPAPPLSKVPLQQNFQDNQFQGKWYVVGRAGNVGLREDKDPPKMWATIYELKEDKSYDVTNVRFAGKKVKYTIGTFVPGSQPGEFTLGQIKSEPGNTATLVRVVSTNYNQHAMVFFKEVYQNREIFFITLYGRTKELTSELKENFIRFSKSLGLPENHIVFPVPIDQAIDGSAWSHPQFEK 2e+06
